# measured-target: UniProtKB P50406
# assay-info: Displacement of [3H]LSD from human recombinant 5-HT6 receptor expressed in CHO-K1 cell membrane after 3 hrs by liquid scintillation counting analysis
endpoint-name: log10 Ki (log10 of the value in nM)

{"compound": "O=C1CC(c2ccccc2)CN1c1cnc2c(N3CCCNCC3)cccc2c1 (racemic)", "log10 Ki": 1.00}
{"compound": "O=C1CC(c2ccccc2)CN1c1cnc2c(N3CCNCC3)cccc2c1 (racemic)", "log10 Ki": 0.41}
{"compound": "O=C1CC(c2ccccc2)CN1c1cccc(N2CCNCC2)n1 (racemic)", "log10 Ki": 1.68}
{"compound": "O=C1CC(c2ccccc2)CN1c1cccc(N2CCNCC2)c1 (racemic)", "log10 Ki": 1.92}
{"compound": "O=C1OC(c2ccccc2Cl)CN1c1cccc(N2CCNCC2)c1 (racemic)", "log10 Ki": 2.15}
{"compound": "O=C1CC(c2ccccc2)CN1c1ccc2c(c1)CCCNC2 (racemic)", "log10 Ki": 3.08}

====

# measured-target: 5-hydroxytryptamine receptor 6 (Homo sapiens, UniProt P50406)
# Sequence (P50406 whole entry): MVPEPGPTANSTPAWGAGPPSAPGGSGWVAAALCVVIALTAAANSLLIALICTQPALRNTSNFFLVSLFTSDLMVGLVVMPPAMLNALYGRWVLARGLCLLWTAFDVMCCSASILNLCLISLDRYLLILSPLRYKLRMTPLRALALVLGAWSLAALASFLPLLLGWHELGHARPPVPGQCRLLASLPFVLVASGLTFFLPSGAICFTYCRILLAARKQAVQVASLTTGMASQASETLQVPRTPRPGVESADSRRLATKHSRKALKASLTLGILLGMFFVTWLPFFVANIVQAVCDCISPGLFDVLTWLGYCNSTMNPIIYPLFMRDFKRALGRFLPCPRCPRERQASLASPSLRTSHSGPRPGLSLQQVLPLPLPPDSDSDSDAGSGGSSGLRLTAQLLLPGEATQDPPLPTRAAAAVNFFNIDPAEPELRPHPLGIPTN
# assay-info: Displacement of [3H]LSD from human recombinant 5-HT6 receptor expressed in CHO-K1 cell membrane after 3 hrs by liquid scintillation counting analysis
# Assay type: cell membranes
pKi: −log10 of the molar value.
endpoint-name: pKi

{"compound": "O=C1OC(c2ccccc2Cl)CN1c1ccc2c(c1)CCNC2 (racemic)", "relation-operator": "=", "observed-measurement": 6.48}
{"compound": "O=C1CC(c2ccccc2)CN1c1cncc(N2CCNCC2)c1 (racemic)", "relation-operator": "=", "observed-measurement": 5.39}
{"compound": "O=C1OC(c2ccccc2F)CN1c1ccc2c(c1)CCNCC2 (racemic)", "relation-operator": "=", "observed-measurement": 7.82}
{"compound": "O=C1CSC2(C(=O)Nc3ccccc32)N1c1ccccc1 (racemic)", "relation-operator": "=", "observed-measurement": 5.24}
{"compound": "O=C1OC(c2ccccc2Cl)CN1c1cccc(OC2CCNCC2)c1 (racemic)", "relation-operator": "=", "observed-measurement": 6.62}
{"compound": "O=C1OC(c2ccccc2)CN1c1ccc2c(c1)CCNCC2 (racemic)", "relation-operator": "=", "observed-measurement": 7.80}
{"compound": "CN1CCN(c2ncc(N3CC(c4ccccc4)CC3=O)s2)CC1 (racemic)", "relation-operator": "<", "observed-measurement": 4.52}
{"compound": "COc1cc(OC)cc(N2C(=O)CSC23C(=O)Nc2ccccc23)c1 (racemic)", "relation-operator": "=", "observed-measurement": 7.06}
{"compound": "COc1ccccc1C1CN(c2ccc3c(c2)CCNCC3)C(=O)O1 (racemic)", "relation-operator": "=", "observed-measurement": 7.06}
{"compound": "O=C1OC(c2cccc(Cl)c2)CN1c1ccc2c(c1)CCNCC2 (racemic)", "relation-operator": "=", "observed-measurement": 8.00}

====

# measured-target: 5-hydroxytryptamine receptor 2B (Homo sapiens, UniProt P41595)
# Sequence (P41595 whole entry): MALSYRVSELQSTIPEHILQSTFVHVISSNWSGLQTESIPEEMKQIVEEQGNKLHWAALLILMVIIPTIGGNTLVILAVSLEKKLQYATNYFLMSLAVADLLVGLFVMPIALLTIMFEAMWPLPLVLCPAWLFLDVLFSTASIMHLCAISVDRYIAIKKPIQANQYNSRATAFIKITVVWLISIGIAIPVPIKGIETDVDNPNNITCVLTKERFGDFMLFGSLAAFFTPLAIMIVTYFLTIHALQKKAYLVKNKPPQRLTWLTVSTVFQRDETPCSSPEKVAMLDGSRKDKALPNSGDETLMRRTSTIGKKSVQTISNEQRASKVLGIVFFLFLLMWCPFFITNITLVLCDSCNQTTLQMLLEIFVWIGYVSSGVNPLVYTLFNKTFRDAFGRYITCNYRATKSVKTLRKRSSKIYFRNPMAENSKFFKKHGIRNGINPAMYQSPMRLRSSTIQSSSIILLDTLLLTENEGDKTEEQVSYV
# assay-info: Binding affinity to 5-HT2B receptor (unknown origin)
pKi: −log10 of the molar value.
endpoint-name: pKi

{"molecule": "O=C1CC(c2ccccc2)CN1c1cnc2c(N3CCNCC3)cccc2c1 (single isomer, unassigned; enantiomer 1)", "measured-target": "5-hydroxytryptamine receptor 2B (Homo sapiens, UniProt P41595)", "endpoint-name": "pKi", "observed-measurement": "< 4.52"}

====

# measured-target: 5-hydroxytryptamine receptor 6 (Homo sapiens)
# assay-info: Displacement of [3H]LSD from human recombinant 5-HT6 receptor expressed in CHO-K1 cell membrane after 3 hrs by liquid scintillation counting analysis
# Type: cell membranes
Recorded Ki for the following compounds

{"compound": "O=C1CC(c2ccccc2)CN1c1ccc2c(N3CCNCC3)ccnc2c1 (racemic)", "Ki": "55 nM"}
{"compound": "O=C1CC(c2ccccc2)CN1c1cccc(C2CCNCC2)c1 (racemic)", "Ki": "70 nM"}
{"compound": "O=C1OC(c2ccccc2Cl)CN1c1ccc2c(c1)CCNCC2 (racemic)", "Ki": "47 nM"}
{"compound": "O=C1CC(c2ccccc2)CN1c1ccc2c(c1)CNCC2 (racemic)", "Ki": "140 nM"}
